Test system: NIH/3T3 cells
Test: Cell death protective effect in fibroblasts against Erastin, glutamate and RSL3 (LDH)
Format: cell-based, mouse
Settings: NIH/3T3, Erastin, 3 μM; compound 0.1 μM; 24 h
quantity: inhibition (%)
Please give a number only; it is taken to be in %.

Observe how each entry below is paired with its result.
INSERT INTO results (molecule, system_name, quantity_unit, test_value) VALUES
  ('CCOCc1cc(NC2CCCC2)c2[nH]c(-c3ccccc3)cc2c1 [Example 19]', 'NIH/3T3 cells', '%', 100),
  ('COCc1cc(NC2CCCC2)c2[nH]c(-c3ccccc3)cc2c1 [Example 2]', 'NIH/3T3 cells', '%', 99),
  ('CCOC(=O)c1ccc(NC2CCCCC2)c(N)c1 [Ferrostatin-1, reference compound]', 'NIH/3T3 cells', '%', 0),
  ('CCOCc1cc(NC2CCOCC2)c2c(c1)c(COC)c(-c1ccccc1)n2C [Example 29]', 'NIH/3T3 cells', '%', 0),
  ('COCc1cc(NC2CC[S+]([O-])CC2)c2[nH]c(-c3ccccc3)cc2c1 (centres unmarked) [Example 14]', 'NIH/3T3 cells', '%', 38),
  ('COCc1cc(NC2CCOCC2)c2[nH]c(-c3ccccc3)cc2c1 [Example 1]', 'NIH/3T3 cells', '%', 99),
  ('CCOCc1cc(NC2CCOCC2)c2[nH]c(-c3ccccc3)c(-c3ncc[nH]3)c2c1 [Example 46]', 'NIH/3T3 cells', '%', 102);

Then there is this molecule:
Fill in inhibition (%) for record COCCc1cc(NC2CCOCC2)c2[nH]c(-c3ccccc3)cc2c1 [Example 41]
0

###

Experiment: Plasma and brain concentration after oral administration to ICR mice (HPLC-MS/MS)
Format: in vivo
Settings: ICR, mouse, plasma, po, 10 mg/kg, 24 hours after administration, read-out: drug concentration in plasma
Experimental: […] parameters can be represented as maximum concentration in plasma (Cmax), time taken until maximum concentration in plasma (Tmax), area under the plasma concentration-time curve (AUClast and AUCinf), and half-life (t1/2), and the like. The compound of example 2 was orally administered to ICR mice at a dose of 10 mg/kg, and drug concentration in mouse plasma was measured using HPLC-MS/MS spectroscopy at 0.5, 1, 2, 4, 8 and 24 hours. […]
quantity: concentration at 24 h (ng/mL)
Return type: number; implicit unit ng/mL.

For the molecule COCc1cc(NC2CCCC2)c2[nH]c(-c3ccccc3)cc2c1 , give its measured concentration at 24 h value.
4.7

###

Test: Plasma and brain concentration after oral administration to ICR mice (HPLC-MS/MS)
Format: in vivo
Details: brain/plasma, ICR mouse, 10 mg/kg, 2 hours after administration, read-out: brain-plasma drug concentration ratio (B/P ratio)
quantity: Kp at 2 h

Return Kp at 2 h for the following compound: COCc1cc(NC2CCCC2)c2[nH]c(-c3ccccc3)cc2c1 [Example 2]
1.91

###

Assay: Plasma and brain concentration after oral administration to ICR mice (HPLC-MS/MS)
Type: in vivo
Settings: brain/plasma, ICR mouse, 10 mg/kg, 24 hours after administration, read-out: brain-plasma drug concentration ratio (B/P ratio)
quantity: Kp at 24 h

Read the entry COCc1cc(NC2CCCC2)c2[nH]c(-c3ccccc3)cc2c1 and write its reported Kp at 24 h.
1.23
